The values you see were collected from patent US11866450B2.

Molecular target: CFTR-mediated chloride transport (Homo sapiens, UniProt P13569)
Sequence (P13569 whole entry, looked up): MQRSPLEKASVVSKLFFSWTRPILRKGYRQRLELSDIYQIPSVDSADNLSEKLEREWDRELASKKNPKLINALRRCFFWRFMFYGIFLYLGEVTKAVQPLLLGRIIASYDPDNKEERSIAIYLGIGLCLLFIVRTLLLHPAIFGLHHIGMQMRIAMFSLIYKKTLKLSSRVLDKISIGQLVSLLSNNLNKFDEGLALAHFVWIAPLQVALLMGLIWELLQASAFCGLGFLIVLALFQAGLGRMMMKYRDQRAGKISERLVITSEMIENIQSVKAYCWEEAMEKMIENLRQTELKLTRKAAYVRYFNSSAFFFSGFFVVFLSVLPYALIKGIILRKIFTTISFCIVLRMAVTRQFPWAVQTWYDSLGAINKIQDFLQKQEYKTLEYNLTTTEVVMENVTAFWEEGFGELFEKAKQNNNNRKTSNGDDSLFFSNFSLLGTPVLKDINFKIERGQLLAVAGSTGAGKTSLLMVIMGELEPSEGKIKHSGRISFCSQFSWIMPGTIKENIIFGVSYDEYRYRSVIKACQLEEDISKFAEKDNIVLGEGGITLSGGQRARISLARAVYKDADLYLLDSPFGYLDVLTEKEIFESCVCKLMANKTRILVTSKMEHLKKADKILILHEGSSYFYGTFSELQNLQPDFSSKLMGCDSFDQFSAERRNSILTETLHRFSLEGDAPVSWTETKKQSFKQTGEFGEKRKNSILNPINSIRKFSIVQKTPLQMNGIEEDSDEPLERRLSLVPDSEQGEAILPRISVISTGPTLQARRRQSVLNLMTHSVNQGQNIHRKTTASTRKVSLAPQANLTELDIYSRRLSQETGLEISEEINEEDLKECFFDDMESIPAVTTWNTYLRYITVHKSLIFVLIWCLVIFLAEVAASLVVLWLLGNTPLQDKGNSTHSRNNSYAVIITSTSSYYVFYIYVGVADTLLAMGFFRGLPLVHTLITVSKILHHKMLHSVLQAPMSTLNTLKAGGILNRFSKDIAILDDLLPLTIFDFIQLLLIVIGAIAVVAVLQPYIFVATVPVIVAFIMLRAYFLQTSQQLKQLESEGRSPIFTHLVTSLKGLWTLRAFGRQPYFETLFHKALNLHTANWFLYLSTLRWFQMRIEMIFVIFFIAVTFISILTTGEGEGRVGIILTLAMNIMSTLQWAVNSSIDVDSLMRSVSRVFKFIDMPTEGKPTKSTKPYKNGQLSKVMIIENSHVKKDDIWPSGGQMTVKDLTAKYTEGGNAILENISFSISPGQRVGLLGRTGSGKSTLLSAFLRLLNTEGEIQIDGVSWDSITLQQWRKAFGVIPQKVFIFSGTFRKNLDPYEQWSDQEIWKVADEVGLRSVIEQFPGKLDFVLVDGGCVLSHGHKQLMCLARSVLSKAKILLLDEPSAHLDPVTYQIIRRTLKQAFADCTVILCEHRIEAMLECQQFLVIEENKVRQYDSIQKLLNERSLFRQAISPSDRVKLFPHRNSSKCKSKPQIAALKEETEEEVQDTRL
Assay type: cell-based
Conditions: enteroid cells incubated with test compound 18-24 hours; acute 10 μM forskolin and 300 nM Compound III; % of chloride transport with 3 μM Compound A, 3 μM Compound II and 300 nM acute Compound III triple combination control
Protocol: Base medium (ADF+++) consisted of Advanced DMEM/Ham's F12, 2 mM Glutamax, 10 mM HEPES, […] penicillin/streptomycin. […] Enteroid cells were incubated with test compound in IEMM for 18-24 hours at 37° C., 95% humidity and 5% CO2. […] Chloride transport was initiated by addition of Chloride Free Dye Stimulation Solution and the fluorescence signal was read for 15 min. […]
assayMetric: Max. Activity

Reference set, count: 5
• CC1(C)CCC2CCCNc3cccc(n3)S(=O)(=O)NC(=O)c3ccc(-n4ccc(OCCC5(C(F)(F)F)CC5)n4)nc3N21 (stereo not drawn) [Compound 16] = ++ (++ is 30-60%)
• CC1(C)C[C@@H]2CCCNc3cccc(n3)S(=O)(=O)NC(=O)c3ccc(-n4ccc(OC[C@@H](O)C5C6(CC6)C56CC6)n4)nc3N1C2 (single isomer, unassigned) [Compound 293] = +++ (+++ is >60%)
• CC1(C)C[C@H]2CCCn3ccc(n3)S(=O)(=O)NC(=O)c3ccc(N4CCC(OCCC5(C(F)(F)F)CC5)C4=O)nc3N1C2 (stereo in doubt) [Compound 183] = ++ (++ is 30-60%)
• CC1(C)C[C@@H]2CCCNc3cccc(n3)S(=O)(=O)NC(=O)c3ccc(-n4ccc(OCC[C@@H](O)C5(C(F)(F)F)CC5)n4)nc3N1C2 (single isomer, unassigned) [Compound 296] = +++ (+++ is >60%)
• CC1(C)CC2CCCCc3cccc(n3)S(=O)(=O)NC(=O)c3ccc(-n4ccc(OCCC5(C(F)(F)F)CC5)n4)nc3N1C2 (stereo not drawn) [Compound 78] = +++ (+++ is >60%)

Field: next compound
query: Query Max. Activity on CFTR-mediated chloride transport (Homo sapiens, UniProt P13569) for CC1(C)C[C@@H]2CCCNc3cccc(n3)S(=O)(=O)NC(=O)c3ccc(N4CCC(OCCC5(C(F)(F)F)CC5)C4=O)nc3N1C2 (stereo partly drawn) [Compound 158]
result: +++ (+++ is >60%)

* * *

target: CFTR-mediated chloride transport (Homo sapiens, UniProt P13569); settings: enteroid cells incubated with test compound 18-24 hours; acute 10 μM forskolin and 300 nM Compound III
Quick list: EC50 per entry.

• CC1(C)C[C@@H]2CCCNc3cccc(n3)S(=O)(=O)NC(=O)c3ccc(N4CCN(CC56CC7CC(CC(C7)C5)C6)C4=O)nc3N1C2 [Compound 229] = < 1 µM
• CC1(C)CC2CCCCn3ccc(n3)S(=O)(=O)NC(=O)c3ccc(-n4ccc(OCCCC5(C(F)(F)F)CC5)n4)nc3N1C2 (stereo not drawn) [Compound 275] = 1 to 3 µM
• Cc1ccc2nc1OCCC[C@@H]1CN(c3nc(-n4ccc(OCCC5(C(F)(F)F)CC5)n4)ccc3C(=O)NS2(=O)=O)C(C)(C)C1 [Compound 109] = < 1 µM

query: I'd like to know its EC50. The molecule in question is CC(C)(C)CC[C@H]1CCN(c2ccc3c(n2)N2C[C@@H](CCCNc4cccc(n4)S(=O)(=O)NC3=O)CC2(C)C)C1=O (single isomer, unassigned) [Compound 127]
result: < 1 µM

query: Quick one: EC50 for Cc1c2cnn1CCCC1CN(c3nc(-n4ccc(OCC(C)(C)C(F)(F)F)n4)ccc3C(=O)NS2(=O)=O)C(C)(C)C1 (single isomer, unassigned) [Compound 289] ?
result: < 1 µM

query: Name the recorded EC50 for CC1(C)C[C@H]2CCCOc3ccc(cc3)S(=O)(=O)NC(=O)c3ccc(-n4ccc(OCCC5(C(F)(F)F)CC5)n4)nc3N1C2 (single isomer, unassigned) [Compound 99] .
result: < 1 µM

query: # input molecule: CC1(C)C[C@@H]2CCCNc3cccc(n3)S(=O)(=O)NC(=O)c3ccc(-n4ccc(OCCC5(C(F)(F)F)CC5)n4)nc3N1C2 [Compound 14] ; wanted: its EC50
result: < 1 µM

query: Would you kindly share the measured EC50 for CN1CCC[C@H]2CCC(C)(C)N2c2nc(-n3ccc(OCCC4(C(F)(F)F)CC4)n3)ccc2C(=O)NS(=O)(=O)c2cccc1n2 [Compound 10] ?
result: > 3 µM

query: Fill in: EC50 of CC1(C)CC2CCCOc3ccc(cn3)S(=O)(=O)NC(=O)c3ccc(-n4ccc(OCCC5(C(F)(F)F)CC5)n4)nc3N1C2 (stereo not drawn) [Compound 90] is ___
result: < 1 µM

query: Which EC50 reading was recorded for the molecule CC1(C)C[C@H]2CCCCc3ccc(cc3)S(=O)(=O)NC(=O)c3ccc(-n4ccc(OCCC5(C(F)(F)F)CC5)n4)nc3N1C2 (single isomer, unassigned) [Compound 54] ?
result: 1 to 3 µM

query: Suppose we examine the molecule CC1(C)CC2CCCOc3cccc(n3)S(=O)(=O)NC(=O)c3ccc(-n4ccc(OCCC5(C(F)(F)F)CC5)n4)nc3N1C2 (racemic) [Compound 40] ; what EC50 value has been reported?
result: < 1 µM
